System: 616215-338-R-J1-PDC tumor spheroids, viability;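 further: spheroids exposed to agents for 7 days before readout; percent viability relative to DMSO vehicle control wells taken as 100%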
Assay: Anticancer human tumor 616215-338-R-J1-PDC patient-derived colon adenocarcinoma cell line growth inhibition [GQUAD]
Details: second compound 3.16 µM; first compound 1 µM; stronger effect = lower value; spheroids with HUVEC and MSC
Catalogue of viability, T/C values

Observe how each entry below is paired with its result.
Compound	Val
Cc1cccc(N(C)C(=O)C2C(O)CCN2c2nc(C)cc(C(F)(F)F)c2C#N)c1 (stereo not given) + CN(C)c1ccc(Nc2c3ccc(NC(=O)CCN4CCCC4)cc3nc3cc(NC(=O)CCN4CCCC4)ccc23)cc1	102%
O=c1[nH]cc(F)c(=O)[nH]1 + Cc1cnc(CNC(=O)c2c(=O)c3ccc(N4CCCN(C)CC4)nc3n3c2sc2ccccc23)cn1	30.3%
C#Cc1c(F)ccc2cc(O)cc(-c3ncc4c(N5CC6CCC(C5)N6)nc(OCC56CCCN5CC(F)C6)nc4c3F)c12 (stereo not given) + CN(C)c1ccc(Nc2c3ccc(NC(=O)CCN4CCCC4)cc3nc3cc(NC(=O)CCN4CCCC4)ccc23)cc1	93.5%
CC1COCCN1c1cc(C2(O)CC3CCC(C2)O3)c2cnn(-c3ccn[nH]3)c2n1 (stereo not given) + Cc1[nH]c2ccc(F)cc2c1-c1nc2c3cccnc3c3ncccc3c2[nH]1	31.7%
CC(=O)O[C@H]1C(=O)[C@@]2(C)[C@H]([C@H](OC(=O)c3ccccc3)[C@]3(O)C[C@H](OC(=O)[C@H](O)[C@@H](NC(=O)c4ccccc4)c4ccccc4)C(C)=C1C3(C)C)[C@]1(OC(C)=O)CO[C@@H]1C[C@@H]2O + Cc1cnc(CNC(=O)c2c(=O)c3ccc(N4CCCN(C)CC4)nc3n3c2sc2ccccc23)cn1	35.8%

Recorded viability, T/C for CC1COCCN1c1cc(C2(S(C)(=N)=O)CC2)nc(-c2ccnc3[nH]ccc23)n1 (stereo not given) + Cc1cnc(CNC(=O)c2c(=O)c3ccc(N4CCCN(C)CC4)nc3n3c2sc2ccccc23)cn1 , please?
30.2%

For CC(C)n1c(=O)n(C)c2cnc3cc(F)c(-c4ccc(OCCCN5CCCCC5)nc4)cc3c21 + CN(C)c1ccc(Nc2c3ccc(NC(=O)CCN4CCCC4)cc3nc3cc(NC(=O)CCN4CCCC4)ccc23)cc1 then?
91.9%

For CC1COCCN1c1cc(C2(S(C)(=N)=O)CC2)nc(-c2ccnc3[nH]ccc23)n1 (stereo not given) + Cc1[nH]c2ccc(F)cc2c1-c1nc2c3cccnc3c3ncccc3c2[nH]1 then?
98.7%

For CC(C)n1c(=O)n(C)c2cnc3cc(F)c(-c4ccc(OCCCN5CCCCC5)nc4)cc3c21 + Cc1[nH]c2ccc(F)cc2c1-c1nc2c3cccnc3c3ncccc3c2[nH]1 then?
98.7%

For C=CC(=O)N1CCN(c2nc(=O)n(-c3c(C)ccnc3C(C)C)c3nc(-c4c(O)cccc4F)c(F)cc23)C(C)C1 (stereo not given) + Cc1cnc(CNC(=O)c2c(=O)c3ccc(N4CCCN(C)CC4)nc3n3c2sc2ccccc23)cn1 then?
26.6%
